- Assay Comment: chemical genetic growth profiling, strain panel (AID 1159580);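 further: tested at 20 µM; growth read once vehicle control cultures reached saturation at 30 °C; 1 = growth at the plate median or of vehicle wells; lower values mean less growth of the strain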
- Condition: S. cerevisiae deletion strains, growth OD, locus YDR054C, strain cdc34, active compounds read low
Hit rate of the full screen: of about 5,500 compounds, about 2,000 (36%) were called active. Inconclusive results (about 18%) are left out. The list shows a part of the results.

{"columns": ["Compound", "normalized growth"],
 "data": [
  ["O=C(Nc1ccncc1)c1cc(-c2ccccc2)oc1C(F)(F)F", 0.981],
  ["Cc1ccc(NC(=S)C(C#N)C(=O)N2CCOCC2)c(C)c1 (stereo not drawn)", 0.99],
  ["O=S(=O)(Nc1csc(C(F)(F)F)c1-c1ccccc1)c1cc(Br)c(Br)s1", 0.96],
  ["C[C@@H](Nc1ncnc2sc3c(c12)CCCC3)c1ccccc1", 0.94],
  ["Clc1ccc(CSc2nccn2-c2cc(Cl)ccc2Cl)cc1", 0.946],
  ["CC(C)(C)C1=C(C#N)C(c2c(Cl)cccc2Cl)C(C#N)=C(N)O1 (stereo not drawn)", 0.976],
  ["N#Cc1ccc(Oc2sccc2[N+](=O)[O-])cc1", 0.907],
  ["O=[N+]([O-])c1ccsc1Oc1cccc(C(F)(F)F)c1", 0.929],
  ["Cc1ccccc1/C=C/c1c[nH]c2ccccc12", 0.985],
  ["Cc1c(S(=O)(=O)Nc2cccc([N+](=O)[O-])c2)sc2ccc(Cl)cc12", 0.969],
  ["N/C(=N/O)c1ccc(Oc2ccc(C3SCCS3)cc2)c([N+](=O)[O-])c1", 0.988],
  ["Clc1cc(Cl)cc(C=NCc2ccccc2)c1", 0.95],
  ["CNC(=O)Sc1c(-c2ccc(Cl)cc2)nn(C(=O)NC)c1SC", 0.985]
]}

---

- Assay Comment: chemical genetic growth profiling, strain panel (AID 1159580)
- Condition: S. cerevisiae deletion strains, growth OD, locus YER155C, strain BEM2, active compounds read low
The whole screen tested about 5,500 compounds, of which about 2,000 (36%) were called active. Inconclusive results (about 18%) are left out. This is one part of the list. Where a SMILES comes first, the peptide text is derived from it.
Measured normalized growth of individual entries
Measured Quantity: normalized growth

{"columns": ["Molecule", "Reported"],
 "data": [
  ["CC(=O)O[C@@H]1CC2C(C)(C)[C@H](O)CC[C@]2(C)C2CC[C@@]3(C)[C@H](c4ccoc4)OC(=O)[C@H]4O[C@]43[C@@]21C (some centres undefined)", 1.01],
  ["CC(=O)O[C@@H]1CC2C(C)(C)C(=O)C3OC3[C@]2(C)C2CC[C@@]3(C)[C@H](c4ccoc4)OC(=O)C4OC43[C@@]21C (some centres undefined)", 0.996],
  ["CC(=O)N[C@@H](CCC(=O)O)C(=O)O", 1.01],
  ["CC(=O)N[C@@H](CC(=O)O)C(=O)N[C@@H](CCC(=O)O)C(=O)O (Ac-Asp-Glu-OH)", 1.01]
]}

---

Measured normalized growth of individual entries
- Assay Comment: chemical genetic growth profiling, strain panel (AID 1159580)
- Condition: S. cerevisiae deletion strains, growth OD, locus YGL253W, strain hxk2, active compounds read low
Hit rate of the full screen: of about 5,500 compounds, about 2,000 (36%) were called active. Inconclusive results (about 18%) are left out. The list shows a part of the results.

{"columns": ["Molecule", "normalized growth"],
 "data": [
  ["COc1ccc2nc(S(=O)Cc3ncc(C)c(OC)c3C)[nH]c2c1 (centres undefined)", 1.01],
  ["CC(=O)O[C@@H]1CC2C(C)(C)[C@H](O)C=C[C@]2(C)C2CC[C@@]3(C)[C@H](c4ccoc4)OC(=O)C4OC43[C@@]21C (some centres undefined)", 1.01],
  ["COc1ccnc(CS(=O)c2nc3ccc(OC(F)F)cc3[nH]2)c1OC (centres undefined)", 1.05],
  ["CC(=O)O[C@@H]1CC2C(C)(C)[C@H](O)CC[C@]2(C)C2CC[C@@]3(C)[C@H](c4ccoc4)OC(=O)C4OC43[C@@]21C (some centres undefined)", 0.997]
]}

---

- Assay Comment: chemical genetic growth profiling, strain panel (AID 1159580);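 further: tested at 20 µM; growth read once vehicle control cultures reached saturation at 30 °C; 1 = growth at the plate median or of vehicle wells; lower values mean less growth of the strain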
- Condition: S. cerevisiae deletion strains, growth OD, locus YER016W, strain bim1
Among all 5,500 compounds or so, about 2,000 (36%) were called active. About 18% were inconclusive and are not listed. No stated cut-off is given here; in the data, active means normalized growth mostly below about 0.91 (no sharp cut-off); inconclusive means no clear call, values can overlap the other calls; inactive means mostly above about 0.92. Some of the results follow.
Classes used: active, inactive

{"columns": ["Molecule", "Class Name"],
 "data": [
  ["Cc1ccc(C(=O)c2ccc(CC(=O)O)n2C)cc1", "inactive"],
  ["CC(C)(S)[C@@H](N)C(=O)O", "inactive"],
  ["FC(F)(F)c1cccc(N2CCNCC2)c1", "inactive"],
  ["COc1c(C)c2c(c(O)c1C/C=C(\\C)CCC(=O)O)C(=O)OC2", "active"],
  ["CN1CCC[C@@H]1CCO[C@](C)(c1ccccc1)c1ccc(Cl)cc1", "inactive"],
  ["CCCCCCCCCCCCCC(=O)OC1C(C)C2(O)C(C=C(CO)CC3(O)C(=O)C(C)=CC32)C2C(C)(C)C12OC(C)=O (configuration not stated)", "inactive"],
  ["O=c1oc2ccccc2cc1O", "inactive"],
  ["NC(C(=O)O)C(O)C(=O)O (configuration not stated)", "inactive"],
  ["CCC(C)C(=O)c1c(O)c(C)c2oc3c(C)c(O)c(C(=O)C(C)CC)c(O)c3c2c1O (configuration not stated)", "inactive"],
  ["O=C(O)[C@@H](S)[C@@H](S)C(=O)O", "inactive"],
  ["NC(N)=NCCCCN=C(N)N", "inactive"],
  ["CC(C)=CC1C(C(=O)OCc2cccc(Oc3ccccc3)c2)C1(C)C (configuration not stated)", "inactive"]
]}

---

- Assay Comment: chemical genetic growth profiling, strain panel (AID 1159580);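 further: tested at 20 µM; growth read once vehicle control cultures reached saturation at 30 °C; 1 = growth at the plate median or of vehicle wells; lower values mean less growth of the strain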
- Condition: S. cerevisiae deletion strains, growth OD, locus YHR030C, strain SLT2
Out of some 5,500 compounds screened, about 2,000 (36%) were called active. Roughly 18% stayed inconclusive and do not appear here. No stated cut-off is given here; in the data, active means normalized growth mostly below about 0.91 (no sharp cut-off); inconclusive means no clear call, values can overlap the other calls; inactive means mostly above about 0.92. The list shows a part of the results.
Classes used: active, inactive

{"columns": ["Compound", "Class Name"],
 "data": [
  ["N#Cc1cccc(CSC2=NCN(C3CC3)CN2)c1", "inactive"],
  ["O=C(Oc1ccc2ccccc2c1C1SCCS1)c1ccc([N+](=O)[O-])o1", "active"],
  ["N#Cc1cccc(CSc2nc3ccc(C(F)(F)F)cc3[nH]2)c1", "inactive"],
  ["CC(C)/C(O)=C1/C(=O)O[C@@H](c2ccoc2)[C@]2(C)C(O)[C@@H](O)[C@@]34OC5(C)OC67CC(C)(C(O)[C@]6(O)[C@@H](O)[C@]3(O5)C12)[C@H](CC(=O)O)[C@]74C (stereo partly drawn)", "inactive"],
  ["COc1ccc(-c2oc3cc(OC)c(OC)c(OC)c3c(=O)c2OC)cc1", "inactive"],
  ["Cc1nn(Cc2ccccc2Cl)c(=N)s1", "inactive"],
  ["CCOC(=O)C(c1ccccc1)C(Nc1ccc(Cl)c(Cl)c1)c1ccccn1 (stereo not drawn)", "inactive"],
  ["c1cncc(C2=NCCC2)c1", "inactive"],
  ["O=C(CN1CCOCC1)Nc1cc(C(F)(F)F)cc(C(F)(F)F)c1", "inactive"],
  ["C[C@H]1C[C@@H](O)[C@]2(O)[C@@]13CC(=O)OC[C@@]2(C)[C@](C)(O)C(=O)C3", "inactive"],
  ["CCc1cccc(C)c1NC(=O)CC(C)(C)CC(=O)O", "inactive"],
  ["CC(=O)NC(CCC(=O)O)C(=O)O (stereo not drawn)", "inactive"],
  ["c1ccc(-c2csc(-c3cccnc3)n2)cc1", "active"],
  ["CC1CCC(C(C)C)C(N(Cc2ccccc2)C(=O)c2ccccc2)C1 (stereo not drawn)", "inactive"],
  ["Cc1cc2c3c(c1)c(O)cc(=O)n3CCC2", "active"],
  ["Cc1c(C)c(C)c(CSc2nc3ccccc3[nH]2)c(C)c1C", "inactive"],
  ["COc1ccc(-c2oc3cc(OC)c(OC)c(OC)c3c(=O)c2OC)cc1OC", "inactive"],
  ["CC(C)(CC(=O)O)CC(=O)Nc1cc(C(F)(F)F)cc(C(F)(F)F)c1", "inactive"],
  ["Nc1ccccc1C(=O)Nc1cc(C(F)(F)F)cc(C(F)(F)F)c1", "inactive"],
  ["CCOC(=O)CNc1ccc(Cl)c(Cl)c1", "inactive"],
  ["O=C(Nc1cc(C(F)(F)F)cc(C(F)(F)F)c1)C(Cl)(Cl)Cl", "active"],
  ["CCOC(=O)C(O)(c1ccc(N)c(C)c1)C(F)(F)F (stereo not drawn)", "inactive"],
  ["c1ccc(-c2ccc(-c3csc(-c4cccnc4)n3)cc2)cc1", "inactive"]
]}

---

- Assay Comment: chemical genetic growth profiling, strain panel (AID 1159580);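 further: tested at 20 µM; growth read once vehicle control cultures reached saturation at 30 °C; 1 = growth at the plate median or of vehicle wells; lower values mean less growth of the strain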
- Condition: S. cerevisiae deletion strains, growth OD, locus YBR009C, strain hhf1, active compounds read low
The whole screen tested about 5,500 compounds, of which about 2,000 (36%) were called active. Not shown: some 18% with an inconclusive outcome. Some of the results follow.
Hi! Just check whether normalized growth is below 1. Below gives rule met, equal or above gives rule not met.

{"columns": ["Compound", "Class Name"],
 "data": [
  ["Clc1ccc(CO/N=C(/Cn2ccnc2)c2ccc(Cl)cc2Cl)c(Cl)c1", "rule met"],
  ["Oc1c(Cl)cc(Cl)c(Cl)c1Cc1c(O)c(Cl)cc(Cl)c1Cl", "rule met"],
  ["C1N2CN3CN1CN(C2)C3", "rule not met"],
  ["O=C(O)[C@@H](S)[C@@H](S)C(=O)O", "rule met"],
  ["Clc1ccc(COC(Cn2ccnc2)c2ccc(Cl)cc2Cl)cc1 (configuration not stated)", "rule met"],
  ["COc1ccc2c(c1)OCC(Cc1ccc(OC)c(O)c1)C2=O (configuration not stated)", "rule met"],
  ["CCN1C[C@@]2(COC)C3[C@@H](OC)[C@H]4[C@@H]1[C@]3(C(OC)C[C@H]2O)C1C[C@@]2(O)[C@H](OC(=O)c3ccccc3)C1[C@]4(OC(C)=O)[C@@H](O)[C@@H]2OC (some centres not stated)", "rule not met"],
  ["Cc1cc(/C=C/c2ccc3cc(N(C)C)ccc3[n+]2C)c(C)n1-c1ccccc1", "rule met"],
  ["NC(C(=O)O)C(O)C(=O)O (configuration not stated)", "rule met"],
  ["COc1cc(NS(C)(=O)=O)ccc1Cc1c2ccccc2nc2ccccc12", "rule met"],
  ["COc1c(C)c2c(c(O)c1C/C=C(\\C)CCC(=O)O)C(=O)OC2", "rule met"],
  ["CC(=O)O[C@@H]1CC2C(C)(C)[C@H](O)CC[C@]2(C)C2CC[C@@]3(C)[C@H](c4ccoc4)OC(=O)C4OC43[C@@]21C (some centres not stated)", "rule not met"],
  ["Clc1ccc(COC(Cn2ccnc2)c2ccc(Cl)cc2Cl)c(Cl)c1 (configuration not stated)", "rule met"],
  ["CC(=O)O[C@]1(C)CC[C@@]23CC1C(C)(C)[C@@H]2CC[C@H]3C", "rule met"],
  ["C=C1C(=O)[C@]23[C@H](O)[C@H]1CC[C@H]2[C@@]12CO[C@]3(O)[C@H](O)[C@@H]1C(C)(C)CC[C@@H]2O", "rule met"]
]}
